biological target: soluble human C3b (human) (UniProt P01024); test: cell-based or functional assay
Sequence (P01024 23-1663 limits assumed): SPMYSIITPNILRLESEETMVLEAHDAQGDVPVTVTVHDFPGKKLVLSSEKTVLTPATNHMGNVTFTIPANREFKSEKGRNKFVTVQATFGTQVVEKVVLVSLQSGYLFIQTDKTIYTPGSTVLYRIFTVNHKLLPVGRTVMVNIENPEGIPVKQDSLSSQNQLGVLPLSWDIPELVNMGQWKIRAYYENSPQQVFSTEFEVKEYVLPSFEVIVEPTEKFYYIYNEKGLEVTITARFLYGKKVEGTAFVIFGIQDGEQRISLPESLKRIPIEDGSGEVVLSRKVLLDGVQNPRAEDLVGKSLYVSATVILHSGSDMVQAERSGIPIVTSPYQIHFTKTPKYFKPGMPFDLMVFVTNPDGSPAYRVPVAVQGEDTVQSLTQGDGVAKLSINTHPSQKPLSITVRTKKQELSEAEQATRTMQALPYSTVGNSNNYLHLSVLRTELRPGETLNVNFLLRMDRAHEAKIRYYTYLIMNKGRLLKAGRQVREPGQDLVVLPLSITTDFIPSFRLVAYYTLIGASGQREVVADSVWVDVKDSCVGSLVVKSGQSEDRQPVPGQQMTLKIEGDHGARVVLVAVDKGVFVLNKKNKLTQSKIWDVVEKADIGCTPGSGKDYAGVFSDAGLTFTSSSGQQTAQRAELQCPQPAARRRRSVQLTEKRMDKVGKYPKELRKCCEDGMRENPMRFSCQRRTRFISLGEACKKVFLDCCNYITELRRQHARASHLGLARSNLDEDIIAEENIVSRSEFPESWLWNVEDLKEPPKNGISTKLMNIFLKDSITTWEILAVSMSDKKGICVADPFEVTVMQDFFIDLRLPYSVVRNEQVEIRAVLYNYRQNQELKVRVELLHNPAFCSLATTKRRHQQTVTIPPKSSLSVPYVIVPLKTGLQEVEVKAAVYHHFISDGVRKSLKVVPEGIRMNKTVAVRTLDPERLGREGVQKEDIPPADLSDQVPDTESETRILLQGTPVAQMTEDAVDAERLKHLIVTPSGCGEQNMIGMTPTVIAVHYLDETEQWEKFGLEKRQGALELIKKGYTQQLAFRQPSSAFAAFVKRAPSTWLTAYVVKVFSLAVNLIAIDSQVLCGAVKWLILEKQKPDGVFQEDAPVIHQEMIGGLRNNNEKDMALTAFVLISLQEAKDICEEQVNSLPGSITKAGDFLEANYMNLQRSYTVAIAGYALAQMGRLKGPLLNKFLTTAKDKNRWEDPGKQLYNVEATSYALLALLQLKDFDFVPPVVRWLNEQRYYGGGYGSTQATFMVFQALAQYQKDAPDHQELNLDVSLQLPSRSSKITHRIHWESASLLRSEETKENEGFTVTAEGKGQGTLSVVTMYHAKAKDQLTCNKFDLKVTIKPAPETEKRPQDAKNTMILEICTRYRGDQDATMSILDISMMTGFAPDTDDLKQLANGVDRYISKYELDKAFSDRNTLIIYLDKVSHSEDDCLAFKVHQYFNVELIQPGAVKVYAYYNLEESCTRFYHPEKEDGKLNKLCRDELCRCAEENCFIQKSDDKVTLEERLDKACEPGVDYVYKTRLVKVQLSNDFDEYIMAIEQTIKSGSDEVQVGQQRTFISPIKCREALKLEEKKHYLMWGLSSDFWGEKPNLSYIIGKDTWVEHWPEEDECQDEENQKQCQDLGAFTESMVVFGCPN

{"substance": "Const. No. 33: HSA-GGSSGG-hCFI; H554F (enzyme)", "iC3b EC50": "16.4 nM"}
{"substance": "Const. No. 57: HSA-GGSSGG-hCFI; D395A; E416A (enzyme)", "iC3b EC50": "17.5 nM"}
{"substance": "Const. No. 54: HSA-GGSSGG-hCFI; D395K (enzyme)", "iC3b EC50": "7.38 nM"}
{"substance": "Const. No. 51: HSA-GGSSGG-hCFI; E416R (enzyme)", "iC3b EC50": "12.5 nM"}
{"substance": "Const. No. 45: HSA-GGSSGG-hCFI; R484A (enzyme)", "iC3b EC50": "61.1 nM"}
{"substance": "Const. No. 41: HSA-GGSSGG-hCFI; L73F (enzyme)", "iC3b EC50": "31.4 nM"}
{"substance": "Const. No. 14: HSA-GGSSGG-hCFI; S499A (enzyme)", "iC3b EC50": "40.9 nM"}
{"substance": "Const. No. 36: HSA-GGSSGG-hCFI; A342R (enzyme)", "iC3b EC50": "13.1 nM"}
{"substance": "Const. No. 34: HSA-GGSSGG-hCFI; H554K (enzyme)", "iC3b EC50": "8.7 nM"}
{"substance": "Const. No. 58: HSA-GGSSGG-hCFI; D395A; E416A; D425A (enzyme)", "iC3b EC50": "8.15 nM"}
{"substance": "Const. No. 66: HSA-GGSSGG-hCFI-GGSSGG-hCR1; CCP8; CCP9; CCP10-(SEQ ID NO: 33)-hFH; CCP19; CCP20 (from UniProt P17927 491-684; P08603 1107-1231) (enzyme)", "iC3b EC50": "3.17 nM"}
{"substance": "Const. No. 49: HSA-GGSSGG-hCFI; Δ(V565) > VY (enzyme)", "iC3b EC50": "89.2 nM"}
{"substance": "Const. No. 92: HSA-GGSSGG-hCFI; N422A (enzyme)", "iC3b EC50": "46.3 nM"}
{"substance": "Const. No. 38: HSA-GGSSGG-hCFI; N52A (enzyme)", "iC3b EC50": "39.8 nM"}
{"substance": "Const. No. 50: HSA-GGSSGG-hCFI; E416K (enzyme)", "iC3b EC50": "12.8 nM"}
{"substance": "Const. No. 22: HSA-GGSSGG-hCFI; R62A (enzyme)", "iC3b EC50": "102 nM"}
{"substance": "Const. No. 29: HSA-GGSSGG-hCFI; E401F (enzyme)", "iC3b EC50": "10.6 nM"}
{"substance": "Const. No. 15: HSA-GGSSGG-hCFI; S499K (enzyme)", "iC3b EC50": "35.1 nM"}
{"substance": "Const. No. 2: HSA-GGSSGG-hCFI; F559H (enzyme)", "iC3b EC50": "28.6 nM"}
{"substance": "Const. No. 55: HSA-GGSSGG-hCFI; D395R (enzyme)", "iC3b EC50": "12.4 nM"}
